Just for reference, patent US20100249205A1 is where these values come from.

- assay_system: mTOR (Homo sapiens, UniProt P42345)
- experiment: mTOR inhibition (Table 1)
- Type: biochemical
readout_label: IC50

Q: Enter recorded IC50 with mTOR (Homo sapiens, UniProt P42345) for COCC1OC(=O)C(=CN2CCCC2)C2=C(O)C(=O)C3=C(C(OC(C)=O)CC4(C)C(=O)CCC34)C21C (stereo not shown) [PX-867] here.
Result: > 3 µM

====

Listed molecules paired with reported IC50
- assay_system: PI-3 kinase
- condition_label: read-out: PI-3 kinase inhibition IC50
Lab book: enter the figure in nM, no units written.

molecule: COCC1OC(=O)C(=CN2CCCC2)C2=C(O)C(=O)C3=C(C(OC(C)=O)CC4(C)C(=O)CCC34)C21C (centres unmarked)
assay_system: PI-3 kinase
result_number: 1.1

In the following, a different molecule is considered.
Q: // Input: C=CCN(/C=C1/C(=O)O[C@H](COC)[C@@]2(C)C1=C(O)C(=O)C1=C2[C@H](OC(C)=O)C[C@]2(C)C(=O)CC[C@@H]12)CC=C . Output its IC50 only.
Result: 0.5
